# Target Desc: EGFR (Homo sapiens)
# Construct: Kinases are expressed as either kinase domains or full length constructs; made in house
# Sequence (P00533 25-1210, species assumed): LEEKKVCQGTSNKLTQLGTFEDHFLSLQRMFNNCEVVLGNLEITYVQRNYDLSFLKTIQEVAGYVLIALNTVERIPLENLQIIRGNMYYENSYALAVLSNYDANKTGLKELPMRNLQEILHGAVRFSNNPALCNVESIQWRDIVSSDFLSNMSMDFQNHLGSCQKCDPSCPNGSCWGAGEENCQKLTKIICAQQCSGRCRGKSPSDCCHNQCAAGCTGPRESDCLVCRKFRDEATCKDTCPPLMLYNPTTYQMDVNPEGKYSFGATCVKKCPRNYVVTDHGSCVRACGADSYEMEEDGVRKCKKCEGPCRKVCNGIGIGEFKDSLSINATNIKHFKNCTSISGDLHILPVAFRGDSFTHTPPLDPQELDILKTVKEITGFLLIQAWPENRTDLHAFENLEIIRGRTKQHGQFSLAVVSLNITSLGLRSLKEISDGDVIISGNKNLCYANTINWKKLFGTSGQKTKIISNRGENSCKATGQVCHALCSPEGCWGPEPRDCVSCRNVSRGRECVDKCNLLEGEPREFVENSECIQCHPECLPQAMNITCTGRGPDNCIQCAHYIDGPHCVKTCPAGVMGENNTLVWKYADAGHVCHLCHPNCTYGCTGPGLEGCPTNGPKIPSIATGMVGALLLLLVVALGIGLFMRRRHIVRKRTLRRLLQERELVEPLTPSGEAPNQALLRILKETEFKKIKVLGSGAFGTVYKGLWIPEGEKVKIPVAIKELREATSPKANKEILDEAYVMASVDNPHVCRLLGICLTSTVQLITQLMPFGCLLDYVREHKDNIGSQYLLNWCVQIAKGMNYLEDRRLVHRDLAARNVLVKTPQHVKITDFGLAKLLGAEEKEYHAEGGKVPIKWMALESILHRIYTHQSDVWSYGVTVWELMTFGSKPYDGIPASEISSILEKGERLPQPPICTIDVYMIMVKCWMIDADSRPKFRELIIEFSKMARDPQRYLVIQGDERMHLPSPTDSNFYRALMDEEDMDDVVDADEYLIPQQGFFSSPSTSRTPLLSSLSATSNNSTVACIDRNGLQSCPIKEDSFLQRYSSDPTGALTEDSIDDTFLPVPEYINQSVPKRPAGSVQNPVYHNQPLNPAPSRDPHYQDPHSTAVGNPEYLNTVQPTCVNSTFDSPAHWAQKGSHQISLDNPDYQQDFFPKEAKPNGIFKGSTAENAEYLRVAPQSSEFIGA
# Experiment Notes: Kinase inhibition assay (33P transfer), EGFR
# Assay type: biochemical
# Particulars: Table 2, class symbols A-E; read-out: EGFR-1
pIC50: −log10 of the molar value.
Measured Endpoint: pIC50

Example compounds with recorded pIC50:
COC(=O)c1ccc(-c2cc(Nc3ncnc(NCc4cccs4)n3)[nH]n2)cc1 [Compound 877]: 5.07 to 5.23
O=C(O)CNC(=O)c1ccc(Nc2ncnc(Nc3cc(-c4ccco4)[nH]n3)n2)cc1 [Compound 884]: 5.24 to 6.02
c1ccc(CNc2nc3ccccc3n2-c2ncnc(Nc3cccc(Cn4ccnn4)c3)n2)nc1 [Compound 962]: 5.13 to 5.30
COc1ccc(Nc2ncnc(Nc3ccc4c(c3)C(=O)N(C)C4=O)n2)cc1OC [Compound 856]: < 4.96

Looking up CC(C)Nc1ncccc1-c1ncnc(Nc2cccc(CC(=O)O)c2)n1 [Compound 1097] , I see its pIC50 listed as < 4.91

Note to self: pIC50 recorded for COc1ccc(Nc2ncnc(N(C)c3ccc(C(=O)O)cc3)n2)cc1OC [Compound 860] was < 4.93

Short answer for COC(=O)c1ccc(-c2cc(Nc3ncnc(NCCNC(C)=O)n3)[nH]n2)cc1 [Compound 819] : pIC50 was < 4.94

Noted for COc1cc(Nc2ncnc(Nc3cccc(Cl)c3)n2)cc(OC)c1 [Compound 723] : its pIC50 reads > 5.95

* * *

Endpoint: IC50. System: Fyn (Homo sapiens, UniProt P06241). Items follow.
Sequence (P06241 whole entry, species assumed): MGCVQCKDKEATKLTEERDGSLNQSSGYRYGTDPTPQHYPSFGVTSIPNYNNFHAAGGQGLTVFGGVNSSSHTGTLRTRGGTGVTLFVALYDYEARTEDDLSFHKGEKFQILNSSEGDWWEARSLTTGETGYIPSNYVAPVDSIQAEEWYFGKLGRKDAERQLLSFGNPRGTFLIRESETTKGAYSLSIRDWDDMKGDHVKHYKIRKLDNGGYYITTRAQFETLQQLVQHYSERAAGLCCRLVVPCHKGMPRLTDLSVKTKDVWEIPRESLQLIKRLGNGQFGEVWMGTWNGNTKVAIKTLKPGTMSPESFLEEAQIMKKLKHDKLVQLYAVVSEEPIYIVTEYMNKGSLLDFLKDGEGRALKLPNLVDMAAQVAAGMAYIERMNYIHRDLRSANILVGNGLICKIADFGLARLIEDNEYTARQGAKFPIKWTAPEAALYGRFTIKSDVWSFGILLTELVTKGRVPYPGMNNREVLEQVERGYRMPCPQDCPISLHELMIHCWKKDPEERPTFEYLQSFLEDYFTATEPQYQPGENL

COc1cc(Nc2ncnc(-n3c(Nc4cccc(C(N)=O)c4)nc4ccccc43)n2)cc(OC)c1OC: > 8.78 µM
c1coc(-c2cc(Nc3ncnc(Nc4ccc(N5CCOCC5)cc4)n3)[nH]n2)c1: 0.989 to 5.93 µM
COc1cc(Nc2ncnc(Nc3cc(C)c(O)cc3C)n2)cc(OC)c1OC: < 1.01 µM
COc1cc(Nc2ncnc(Nc3ccc(N4CCOCC4)cc3)n2)cc(OC)c1OC: 0.912 to 5.47 µM
COc1ccc2c(ccn2-c2ncnc(Nc3cc(OC)c(OC)c(OC)c3)n2)c1: > 11 µM

Recorded result, C=CCNc1ncccc1-c1ncnc(Nc2cc(OC)c(OC)c(OC)c2)n1 , IC50: 1.01 to 6.08 µM

Form field IC50, entry COc1cc(Nc2ncnc(Nc3cccc4ccccc34)n2)cc(OC)c1OC : 0.991 to 5.95 µM

Given item COc1cc(Nc2ncnc(Nc3ccc(C(=O)O)cc3)n2)cc(OC)c1OC , the value recorded as its IC50 is 1.01 to 6.04 µM

* * *

IC50 values by entry
# Target Desc: AKT (Homo sapiens, UniProt Q9Y243)
# Construct: Kinases are expressed as either kinase domains or full length constructs; made in house
# Sequence (Q9Y243 whole entry, the tested form may be a part): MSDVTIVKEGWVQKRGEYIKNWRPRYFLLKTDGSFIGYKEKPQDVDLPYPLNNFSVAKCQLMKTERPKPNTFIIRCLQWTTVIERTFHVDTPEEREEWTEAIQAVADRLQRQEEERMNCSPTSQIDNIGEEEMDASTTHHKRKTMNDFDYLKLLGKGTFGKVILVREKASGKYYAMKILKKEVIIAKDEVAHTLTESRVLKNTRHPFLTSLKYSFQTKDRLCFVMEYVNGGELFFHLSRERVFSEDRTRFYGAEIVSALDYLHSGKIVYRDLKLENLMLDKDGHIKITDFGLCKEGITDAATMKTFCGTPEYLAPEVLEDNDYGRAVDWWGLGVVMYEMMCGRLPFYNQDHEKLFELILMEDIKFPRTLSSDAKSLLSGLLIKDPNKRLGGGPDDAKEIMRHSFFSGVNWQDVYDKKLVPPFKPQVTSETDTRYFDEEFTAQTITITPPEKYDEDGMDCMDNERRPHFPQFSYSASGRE
# Experiment Notes: Kinase inhibition assay (33P transfer), AKT
# Type: biochemical
# Particulars: Table 2, kinase inhibition class; read-out: AKT3-1

CC(C)(C)c1cc(Nc2ncnc(Cl)n2)[nH]n1: > 17.8 µM

Summary for this compound, Nc1nc2ccccc2n1-c1ncnc(Nc2ccc(OC(F)(F)F)cc2)n1 : IC50 is > 11.6 µM

IC50 measured on CN(c1cccc(Cl)c1)c1ncnc(Nc2ccc3[nH]ccc3c2)n1 = > 12.8 µM

Summary for this compound, N#Cc1ccc(Nc2ncnc(-n3c(=O)[nH]c4ccccc43)n2)cc1 : IC50 is > 13.7 µM

Lab note: COc1cc(Nc2ncnc(-c3cccnc3NCc3ccc(F)cc3)n2)cc(OC)c1OC gave IC50 of > 9.73 µM

Per the record, COC(=O)c1cccc(Nc2nc3ccccc3n2-c2ncnc(Nc3cc(OC)c(OC)c(OC)c3)n2)c1 has IC50 of > 8.53 µM

Value of IC50 reported for the compound NC(=O)c1ccc(Nc2ncnc(Nc3cc(-c4ccco4)n[nH]3)n2)cc1 is > 12.4 µM

Short answer for COCCOc1ccc(Nc2ncnc(Nc3cc(-c4ccco4)n[nH]3)n2)cc1OCCOC : IC50 was 5.13 to 7.49 µM

* * *

# Target Desc: AKT (Homo sapiens)
# Construct: Kinases are expressed as either kinase domains or full length constructs; made in house
# Experiment Notes: Kinase inhibition assay (33P transfer), AKT
# Assay type: biochemical
# Particulars: Table 2, kinase inhibition class; read-out: AKT3-1
Here, each record is paired with measured IC50 data.

Below: 6 compounds and their reported IC50.
COc1cc(Nc2ncnc(N3CCCC4CCCCC43)n2)cc(OC)c1OC (stereo not drawn) [Compound 314]: > 11.3 µM
CCN(CC)CCNc1ncnc(N(C)c2cccc(Cl)c2)n1 [Compound 745]: > 13.4 µM
Oc1ccc(Nc2ncnc(Nc3ccc(OCc4ccccc4)cc3)n2)cc1 [Compound 158]: 1.04 to 6.23 µM
CN(c1cccc(Cl)c1)c1ncnc(NCC2CCCO2)n1 (stereo not drawn) [Compound 739]: > 14.1 µM
Cc1cccc(Nc2ncnc(Nc3ccc(O)cc3)n2)c1 [Compound 107]: 1.36 to 8.18 µM
CC(C)(C)c1ccc(Nc2ncnc(-n3c(N)nc4ccccc43)n2)cc1 [Compound 525]: > 12.5 µM

AKT (Homo sapiens) assay, compound NCc1ccc(Nc2ncnc(Nc3cc(-c4ccco4)n[nH]3)n2)cc1 [Compound 437] , recorded IC50 = > 12.9 µM

Lab note: compound COc1cc(Nc2ncnc(N3CCCc4cc(C)ccc43)n2)cc(OC)c1OC [Compound 498] tested on AKT (Homo sapiens); recorded IC50 was > 11 µM

Value (IC50, AKT (Homo sapiens)) for record Nc1ncnc(Nc2ccc3c(cnn3Cc3ccccc3)c2)n1 [Compound 665] = > 14.2 µM

Hey, AKT (Homo sapiens) data for Brc1cccc(Nc2ncnc(Nc3cccc(Br)c3)n2)c1 [Compound 539] : IC50 came out at 8.31 to 10.7 µM

* * *

# Target Desc: AKT (Homo sapiens, UniProt Q9Y243)
# Construct: Kinases are expressed as either kinase domains or full length constructs; made in house
# Experiment Notes: Kinase inhibition assay (33P transfer), AKT
# Assay type: biochemical
# Particulars: Table 2, kinase inhibition class; read-out: AKT3-1
Reported IC50 is given for each of the following compounds.

// solved cases for IC50 follow
CN(c1cccc(Cl)c1)c1ncnc(NCCN2CCCCC2)n1: > 13 µM
COc1cc(Nc2ncnc(-n3ccc4cc(Cl)ccc43)n2)cc(OC)c1OC: > 10.9 µM
Cc1cccc(Nc2ncnc(N(C)c3cccc(Cl)c3)n2)c1: > 13.8 µM
c1ccc(Cn2ncc3cc(Nc4ncnc(NCc5ccco5)n4)ccc32)cc1: > 11.3 µM
COc1cc(Nc2ncnc(-n3cc(C#N)c4ccccc43)n2)cc(OC)c1OC: > 11.2 µM
COc1cc(Nc2ncnc(-n3c(NCc4cccnc4)nc4ccccc43)n2)cc(OC)c1OC: > 9.29 µM

Field IC50 (system: AKT (Homo sapiens, UniProt Q9Y243)) for entry COc1cc(Nc2ncnc(Nc3cccc(OC(F)(F)F)c3)n2)cc(OC)c1OC = > 10.3 µM

FC(F)C(F)(F)Oc1cccc(Nc2ncnc(-c3ccnc(N4CCCCC4)c3)n2)c1 on AKT (Homo sapiens, UniProt Q9Y243) gives IC50 = > 10 µM

Here COc1cc(Nc2ncnc(-n3c(NCc4ccccc4)nc4ccccc43)n2)cc(OC)c1OC was tested on AKT (Homo sapiens, UniProt Q9Y243), and its IC50 came to > 9.31 µM

* * *

# Target Desc: PDGFRB (Homo sapiens, UniProt P09619)
# Construct: Kinases are expressed as either kinase domains or full length constructs; made in house
# Sequence (P09619 33-1106, species assumed): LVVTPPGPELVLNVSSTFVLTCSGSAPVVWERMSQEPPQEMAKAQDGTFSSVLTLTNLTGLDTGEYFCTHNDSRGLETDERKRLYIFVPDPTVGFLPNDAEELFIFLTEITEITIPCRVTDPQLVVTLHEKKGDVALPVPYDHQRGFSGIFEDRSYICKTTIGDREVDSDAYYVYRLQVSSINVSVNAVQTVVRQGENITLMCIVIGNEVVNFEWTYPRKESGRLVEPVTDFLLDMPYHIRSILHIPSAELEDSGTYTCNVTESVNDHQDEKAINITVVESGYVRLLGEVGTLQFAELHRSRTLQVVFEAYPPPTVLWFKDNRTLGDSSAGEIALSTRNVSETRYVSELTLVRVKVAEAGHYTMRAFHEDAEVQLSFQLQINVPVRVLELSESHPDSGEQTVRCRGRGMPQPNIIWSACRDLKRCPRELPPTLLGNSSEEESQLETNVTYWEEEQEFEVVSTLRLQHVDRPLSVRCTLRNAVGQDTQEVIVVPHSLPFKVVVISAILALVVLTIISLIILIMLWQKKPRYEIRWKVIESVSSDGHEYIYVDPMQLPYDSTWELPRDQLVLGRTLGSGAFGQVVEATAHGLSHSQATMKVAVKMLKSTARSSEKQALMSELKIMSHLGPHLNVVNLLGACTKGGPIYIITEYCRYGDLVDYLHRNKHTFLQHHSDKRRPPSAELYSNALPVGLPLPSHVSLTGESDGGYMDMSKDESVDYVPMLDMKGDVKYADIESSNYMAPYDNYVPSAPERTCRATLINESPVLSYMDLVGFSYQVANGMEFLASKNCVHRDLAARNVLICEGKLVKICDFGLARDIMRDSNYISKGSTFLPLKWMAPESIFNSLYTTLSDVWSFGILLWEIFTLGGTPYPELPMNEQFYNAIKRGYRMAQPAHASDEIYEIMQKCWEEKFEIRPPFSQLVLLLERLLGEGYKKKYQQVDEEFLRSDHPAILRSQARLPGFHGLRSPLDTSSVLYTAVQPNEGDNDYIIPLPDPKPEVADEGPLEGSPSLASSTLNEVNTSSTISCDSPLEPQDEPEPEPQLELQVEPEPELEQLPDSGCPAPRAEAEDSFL
# Experiment Notes: Kinase inhibition assay (33P transfer), PDGFRB
# Assay type: biochemical
# Particulars: read-out: PDGFRB-1
Measured Endpoint: IC50

COc1cc(Nc2ncnc(Nc3cccc(C)c3)n2)cc(OC)c1OC: 9.53 to 12.2 µM
COc1cc(Nc2ncnc(Nc3cc(Cl)c(O)c(Cl)c3)n2)cc(OC)c1OC: 0.913 to 5.48 µM
COc1cc(Nc2ncnc(-n3ccc4cc(OCc5ccccc5)ccc43)n2)cc(OC)c1OC: 0.827 to 4.96 µM
COc1cc(Nc2ncnc(-n3c(NCc4cccc(F)c4)nc4ccccc43)n2)cc(OC)c1OC: < 0.798 µM
COc1cc(Nc2ncnc(-n3c(Nc4ccccc4)nc4ccccc43)n2)cc(OC)c1OC: < 0.852 µM
COc1cc(Nc2ncnc(Nc3ccc(NS(=O)(=O)c4ccc([N+](=O)[O-])cc4)cc3)n2)cc(OC)c1OC: < 0.723 µM

With those in mind, consider the next compound.
Please fill in: IC50 reported for COc1cc(Nc2ncnc(-n3cc(CCO)c4ccccc43)n2)cc(OC)c1OC = < 0.949 µM

* * *

Reported IC50 values for a set of compounds
# Target Desc: Itk (Homo sapiens)
# Construct: Kinases are expressed as either kinase domains or full length constructs; made in house
# Sequence (Q08881 whole entry, species assumed, the tested form may be a part): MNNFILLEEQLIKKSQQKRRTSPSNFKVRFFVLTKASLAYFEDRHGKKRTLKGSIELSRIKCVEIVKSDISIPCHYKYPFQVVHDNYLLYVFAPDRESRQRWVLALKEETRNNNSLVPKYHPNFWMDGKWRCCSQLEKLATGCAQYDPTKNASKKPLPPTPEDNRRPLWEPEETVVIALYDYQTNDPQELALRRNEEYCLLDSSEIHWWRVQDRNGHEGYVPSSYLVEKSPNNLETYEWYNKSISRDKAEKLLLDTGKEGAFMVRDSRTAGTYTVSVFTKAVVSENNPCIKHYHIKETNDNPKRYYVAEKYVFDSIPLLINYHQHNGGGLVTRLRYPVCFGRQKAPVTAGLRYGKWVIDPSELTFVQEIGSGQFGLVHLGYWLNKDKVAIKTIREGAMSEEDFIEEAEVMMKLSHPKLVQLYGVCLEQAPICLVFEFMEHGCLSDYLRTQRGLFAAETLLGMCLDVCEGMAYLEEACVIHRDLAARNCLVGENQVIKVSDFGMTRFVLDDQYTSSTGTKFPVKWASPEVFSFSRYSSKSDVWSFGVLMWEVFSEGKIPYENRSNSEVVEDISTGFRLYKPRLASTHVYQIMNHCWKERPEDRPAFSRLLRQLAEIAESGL
# Experiment Notes: Kinase inhibition assay (33P transfer), Itk
# Format: biochemical
# Particulars: read-out: Itk-1
# Procedure: The inhibitor compounds described herein are screened in the following manner. […] Kinases are expressed as either kinase domains or full length constructs fused to glutathione S-transferase (GST) or polyHistidine tagged fusion proteins in either E. colior Baculovirus-High Five expression systems. […] Kinase activity and inhibition are measured essentially by established protocols (Braunwalder et al., 1996). […]

COc1cc(Nc2ncnc(N3CCCc4cc(C)ccc43)n2)cc(OC)c1OC [Compound 498]: > 11 µM
COC(=O)c1ccc(-c2cc(Nc3ncnc(Nc4cccc(CC(=O)O)c4)n3)[nH]n2)cc1 [Compound 604]: 0.898 to 5.39 µM
Nc1nc2ccccc2n1-c1ncnc(Nc2cccc(Cl)c2)n1 [Compound 474]: 1.18 to 7.11 µM
COc1cc(Nc2ncnc(NCc3ccccc3)n2)cc(OC)c1OC [Compound 630]: > 12.2 µM

get_value(item= Fc1ccc(Nc2ncnc(Nc3ccc4cn[nH]c4c3)n2)cc1Cl [Compound 719] , readout=IC50) returns > 12.6 µM
